B1: ZNF449 (parent)
chain: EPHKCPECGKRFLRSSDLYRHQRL

variants of: B1; assay: protein stability index of a GFP-peptide fusion (GPS, HEK-293T) (PSI 1-6); higher = more stable; conditions: c terminus: a fixed tail appended;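 further: lentivirally expressed fusions sorted by FACS into six bins by GFP to DsRed ratio, PSI derived from sequencing read proportions per bin multiplied by bin number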
Consider the following variants; for each one, report its protein stability index.
Respond using a number only.

Inquiry: Would you kindly share the measured protein stability index for HPHKCPECGKRFLRSSDLYRHQRL [E1H] ?
Reply text: 3.45

Inquiry: Entry EPHKCPECGKRFLRSSDLYRHPRL [Q22P] : reported protein stability index = ?
Reply text: 2.4

Inquiry: Look up protein stability index for this variant: EPHKCPECGKRPLRSSDLYRHQRL [F12P]
Reply text: 2.51

Inquiry: Which value of protein stability index has been reported for EPHKCSECGKRFLRSSDLYRHQRL [P6S] in the records?
Reply text: 3.69

Inquiry: Tell me the measured protein stability index of EPNKCPECGKRFLRSSDLYRHQRL [H3N] , please.
Reply text: 4.49

Inquiry: Which protein stability index reading was recorded for the variant EPHKCPECGKRFLRSSDLKRHQRL [Y19K] ?
Reply text: 3.92

Inquiry: Give the measured protein stability index of EPHKCPECLKRFLRSSDLYRHQRL [G9L] .
Reply text: 2.3

Inquiry: Would you kindly share the measured protein stability index for EPHKCRECGKRFLRSSDLYRHQRL [P6R] ?
Reply text: 3.1

Inquiry: Can you share its protein stability index? I mean this variant: EPHKCPQCGKRFLRSSDLYRHQRL [E7Q]
Reply text: 3.62

Inquiry: Which protein stability index is reported for this variant? EPHKCPECGKRFLRSSDLYRHQPL [R23P]
Reply text: 2.98

Inquiry: Which protein stability index is listed for EPHKCEECGKRFLRSSDLYRHQRL [P6E] ?
Reply text: 4.19

Inquiry: Recorded protein stability index of EPHKCPECGKRFLKSSDLYRHQRL [R14K] , please.
Reply text: 4.11

Inquiry: For the variant shown here, EPHKCPECGKRFWRSSDLYRHQRL [L13W] , give the reported protein stability index.
Reply text: 3.55

Inquiry: Please report the recorded protein stability index for EPHKCPECGKRFLRSSDLYRHCRL [Q22C] .
Reply text: 3.97

Inquiry: For EEHKCPECGKRFLRSSDLYRHQRL [P2E] , what is its reported protein stability index?
Reply text: 3.42

Inquiry: Consider the variant EPHKCPECGKRFLHSSDLYRHQRL [R14H] and give its measured protein stability index.
Reply text: 3.97

Inquiry: Recorded protein stability index of EPHKCPECGKRFLRSSDLYRHVRL [Q22V] , please.
Reply text: 3.76

Inquiry: So what's the measured protein stability index for this one? EPHKCPECGKRFLRSSDYYRHQRL [L18Y]
Reply text: 2.97

Inquiry: Name the reported protein stability index value associated with the variant EPHKCPECGKRFLRSSDLYRHQQL [R23Q]
Reply text: 4.43

Inquiry: What does the data say about its protein stability index? Entry: EPHKIPECGKRFLRSSDLYRHQRL [C5I]
Reply text: 3.26

Inquiry: Given the entry EPHKCPECGKRFLRSSDTYRHQRL [L18T] , report its measured protein stability index.
Reply text: 2.48

Inquiry: // lookup protein stability index for EPHKCPECGKRFLRNSDLYRHQRL [S15N]
Reply text: 3.51

Inquiry: Give its protein stability index value. Item: EPHKCPECGKVFLRSSDLYRHQRL [R11V]
Reply text: 4.57

Inquiry: Find the recorded protein stability index belonging to EPWKCPECGKRFLRSSDLYRHQRL [H3W] and report it.
Reply text: 4

Source: the supplement of paper PMC10567573
